- Tested on: SN12C
- Protocol Details: GI50, drug alone; higher = less potent
- Settings: treatment: drug alone; 5 days
Test Readout: GI50, drug alone (µM)
Give bare numbers, in µM.

INSERT INTO results (compound, recorded_result) VALUES
  ('C[C@@H](Oc1cc(-n2cnc3ccc(CN4CCN(C)CC4)cc32)sc1C(N)=O)c1ccccc1C(F)(F)F', 0.12),
  ('CN(C)c1ccc(-c2nc3c(N4CCN(CC(=O)Nc5nccs5)CC4)c(Cl)cnc3[nH]2)cc1', 5.4);

Entry Cc1ccc(F)c(NC(=O)Nc2ccc(-c3cccc4[nH]nc(N)c34)cc2)c1 [Linifanib (ABT-869)] , system SN12C: what GI50, drug alone was measured?
6.98

---

- Tested on: 769-P
- Protocol Details: minimum viability across doses, drug alone, relative to DMSO (fraction); higher = less growth inhibition
- Settings: treatment: drug alone; 5 days
Test Readout: minimum viability across doses
Give bare numbers.

Examples with their reported minimum viability across doses follow.
INSERT INTO assay_data (compound, test_readout, recorded_result) VALUES
  ('Cc1ccc(F)c(NC(=O)Nc2ccc(-c3cccc4[nH]nc(N)c34)cc2)c1', 'minimum viability across doses', 0.503),
  ('O=C(c1ccc(/C=C/c2n[nH]c3ccccc23)cc1)N1CCNCC1', 'minimum viability across doses', 0.549),
  ('COC(=O)c1ccc2c(c1)NC(=O)/C2=C(\Nc1ccc(N(C)C(=O)CN2CCN(C)CC2)cc1)c1ccccc1', 'minimum viability across doses', 0.917),
  ('NC1(Cc2ccc(Cl)cc2)CCN(c2ncnc3[nH]ccc23)CC1', 'minimum viability across doses', 0.432),
  ('COc1cc(Nc2c(C#N)cnc3cc(OCCCN4CCN(C)CC4)c(OC)cc23)c(Cl)cc1Cl [Bosutinib (SKI-606)]', 'minimum viability across doses', 0.111);

State recorded minimum viability across doses for all listed compounds.
1. CNC(=O)c1cc(COc2nnc(Nc3ccc(Cl)cc3)c3ccoc23)ccn1
2. NC(=O)c1ccc(-c2nc(-c3ccc4c(c3)OCO4)c(-c3ccccn3)[nH]2)cc1
3. Nc1cccc2c1CN(C1CCC(=O)NC1=O)C2=O (stereo unspecified) [Lenalidomide (Revlimid)]

0.484
0.838
0.963

State recorded minimum viability across doses for all listed compounds.
1. CN1CCN(c2nc(C3=C(c4c[nH]c5ccccc45)C(=O)NC3=O)c3ccccc3n2)CC1
2. CO[C@H]1C[C@@H]2CC[C@@H](C)[C@@](O)(O2)C(=O)C(=O)N2CCCC[C@H]2C(=O)O[C@H]([C@H](C)C[C@@H]2CC[C@@H](OCCO)[C@H](OC)C2)CC(=O)[C@H](C)/C=C(\C)[C@@H](O)[C@@H](OC)C(=O)[C@H](C)C[C@H](C)/C=C/C=C/C=C/1C [Everolimus (RAD001)]
3. C=CC(=O)Nc1cccc(Oc2nc(Nc3ccc(N4CCN(C)CC4)cc3OC)ncc2Cl)c1
4. Oc1cc(O)cc(/C=C/c2ccc(O)c(O)c2)c1
5. CN1CCN(C2CCN(C(=O)Nc3cc(Oc4ccc(NC(=O)C5(C(=O)Nc6ccc(F)cc6)CC5)c(F)c4)ccn3)CC2)CC1 [Golvatinib (E7050)]
6. O=C(Cc1ccc(-c2ccc(OCCN3CCOCC3)cc2)cn1)NCc1ccccc1

0.969
0.56
0.576
0.849
0.423
0.0797

State recorded minimum viability across doses for all listed compounds.
1. CS(=O)(=O)O.Cc1ccc(NC(=O)c2ccc(CN3CCN(C)CC3)cc2)cc1Nc1nccc(-c2cccnc2)n1 [Imatinib Mesylate]
2. FC(F)(F)c1ccc(Nc2nc3cc(Oc4ccnc(-c5ncc(C(F)(F)F)[nH]5)c4)ccc3[nH]2)cc1

0.898
0.473

---

- System: UO-31
- Protocol Details: AUC of dose-response viability curve, drug alone (arbitrary (AUC of normalised viability)); higher = less growth inhibition
- Settings: treatment: drug alone; 5 days
Test Readout: AUC of dose-response viability curve
Answers are plain numbers.

Examples with their reported AUC of dose-response viability curve follow.
INSERT INTO measurements (compound, recorded_result) VALUES
  ('Cc1c(CN2CCN(C(=O)[C@H](C)O)CC2)sc2c(N3CCOCC3)nc(-c3cnc(N)nc3)nc12 [GDC-0980 (RG7422)]', 2.23),
  ('CCOc1cc2ncc(C#N)c(Nc3ccc(OCc4ccccn4)c(Cl)c3)c2cc1NC(=O)/C=C/CN(C)C', 4.06),
  ('N#Cc1c(O)c2c(-c3ccc(-c4ccccc4O)cc3)csc2[nH]c1=O', 4.14),
  ('C[C@@H]1CN(CC(=O)Nc2ccc3c(c2)Cc2cccc(-c4cc(=O)cc(N5CCOCC5)o4)c2S3)C[C@H](C)O1', 6.19),
  ('O=c1sn(-c2cccc3ccccc23)c(=O)n1Cc1ccccc1', 4.53),
  ('O=C1CCC(N2C(=O)c3ccccc3C2=O)C(=O)N1 (stereo unspecified) [Thalidomide]', 4.89),
  ('Cl.Cl.Clc1ccc(Nc2nnc(Cc3ccncc3)c3ccccc23)cc1 [Vatalanib dihydrochloride (PTK787)]', 4.41),
  ('Cn1cc(-c2ccc3nnc(C(F)(F)c4ccc5ncccc5c4)n3n2)cn1', 4.62);

State recorded AUC of dose-response viability curve for all listed compounds.
1. CC[C@@H]1C(=O)N(C)c2cnc(Nc3ccc(C(=O)NC4CCN(C)CC4)cc3OC)nc2N1C1CCCC1
2. Cc1csc(-c2nnc(Nc3ccc(Oc4ncccc4-c4ccnc(N)n4)cc3)c3ccccc23)c1
3. COc1ccc(C2=NC(c3ccc(Cl)cc3)C(c3ccc(Cl)cc3)N2C(=O)N2CCNC(=O)C2)c(OC(C)C)c1 (stereo unspecified)

[1.61, 3.73, 4.29]

State recorded AUC of dose-response viability curve for all listed compounds.
1. O=C(NOCC1CC1)c1ccc(F)c(F)c1Nc1ccc(I)cc1Cl
2. CCS(=O)(=O)Nc1ccc2c(c1)/C(=C(/Nc1ccc(CN3CCCCC3)cc1)c1ccccc1)C(=O)N2
3. CC(C)(C)c1cnc(CSc2cnc(NC(=O)C3CCNCC3)s2)o1
4. CC(C)CC(=O)Nc1n[nH]c2c1CN(C(=O)C1CCN(C)CC1)C2(C)C
5. O=C(NCCCNc1nc(Nc2cccc(NC(=O)N3CCCC3)c2)ncc1I)c1cccs1

1. 4.14
2. 3.32
3. 1.87
4. 3
5. 4.13

---

Field: GI50 of drug. Provide a value for each of the molecules that follow.
- Tested on: SN12C
- Protocol Details: GI50 of drug in presence of dasatinib; higher = less potent
- Settings: treatment: drug + dasatinib (fixed dose, not stated); 5 days
One number for each entry, in µM.

INSERT INTO measurements (molecule, test_readout, recorded_result) VALUES
  ('COc1ccc(-c2ccc3c(N4CCOC[C@@H]4C)nc(N4CCOC[C@@H]4C)nc3n2)cc1CO [AZD8055] + Cc1nc(Nc2ncc(C(=O)Nc3c(C)cccc3Cl)s2)cc(N2CCN(CCO)CC2)n1', 'GI50 of drug', 0.0398);

State recorded GI50 of drug for all listed molecules.
1. Cc1cnc(NC(=O)Nc2cc(Br)c(C)cc2OC[C@@H]2CNCCO2)cn1 + Cc1nc(Nc2ncc(C(=O)Nc3c(C)cccc3Cl)s2)cc(N2CCN(CCO)CC2)n1
2. COc1ccc(-c2cc3c(C)nc(N)nc3n([C@H]3CC[C@H](OCCO)CC3)c2=O)cn1 + Cc1nc(Nc2ncc(C(=O)Nc3c(C)cccc3Cl)s2)cc(N2CCN(CCO)CC2)n1
3. S=C(NCc1ccc2c(c1)OCO2)N1CCN(c2ncnc3c2oc2ccccc23)CC1 [Amuvatinib (MP-470)] + Cc1nc(Nc2ncc(C(=O)Nc3c(C)cccc3Cl)s2)cc(N2CCN(CCO)CC2)n1 [dasatinib]

1: 2.09; 2: 0.0794; 3: 1.97

---

- Test system: A498
- Protocol Details: GI50 of drug in presence of dasatinib; higher = less potent
- Settings: treatment: drug + dasatinib (fixed dose, not stated); 5 days
Test Readout: GI50 of drug

INSERT INTO results (compound, test_readout, recorded_result) VALUES
  ('Cc1ccccc1-n1c(Cn2ncc3c(N)ncnc32)nc2cccc(C)c2c1=O [PIK-293] + Cc1nc(Nc2ncc(C(=O)Nc3c(C)cccc3Cl)s2)cc(N2CCN(CCO)CC2)n1', 'GI50 of drug', '> 10 µM'),
  ('COc1ccc2c(OCc3nnc4ccc(-c5ccccc5)nn34)ccnc2c1 [AMG-208] + Cc1nc(Nc2ncc(C(=O)Nc3c(C)cccc3Cl)s2)cc(N2CCN(CCO)CC2)n1', 'GI50 of drug', '> 10 µM'),
  ('Cn1cc(C2=C(c3ccc(Cl)cc3Cl)C(=O)NC2=O)c2ccccc21 + Cc1nc(Nc2ncc(C(=O)Nc3c(C)cccc3Cl)s2)cc(N2CCN(CCO)CC2)n1', 'GI50 of drug', '> 10 µM'),
  ('O=C(NCCCNc1nc(Nc2cccc(NC(=O)N3CCCC3)c2)ncc1I)c1cccs1 [BX-795] + Cc1nc(Nc2ncc(C(=O)Nc3c(C)cccc3Cl)s2)cc(N2CCN(CCO)CC2)n1', 'GI50 of drug', '> 10 µM');

Now let's try a different one.
Request the reported GI50 of drug associated with O=C1CCC(N2C(=O)c3ccccc3C2=O)C(=O)N1 (stereo not given) [Thalidomide] + Cc1nc(Nc2ncc(C(=O)Nc3c(C)cccc3Cl)s2)cc(N2CCN(CCO)CC2)n1
> 10 µM
